Taken from patent US9266964.

# TARGET ENTITY: human plasma kallikrein (human, UniProt P03952 20-390; P03952 391-638)
# Sequence (P03952 20-390, chain 1 of 2): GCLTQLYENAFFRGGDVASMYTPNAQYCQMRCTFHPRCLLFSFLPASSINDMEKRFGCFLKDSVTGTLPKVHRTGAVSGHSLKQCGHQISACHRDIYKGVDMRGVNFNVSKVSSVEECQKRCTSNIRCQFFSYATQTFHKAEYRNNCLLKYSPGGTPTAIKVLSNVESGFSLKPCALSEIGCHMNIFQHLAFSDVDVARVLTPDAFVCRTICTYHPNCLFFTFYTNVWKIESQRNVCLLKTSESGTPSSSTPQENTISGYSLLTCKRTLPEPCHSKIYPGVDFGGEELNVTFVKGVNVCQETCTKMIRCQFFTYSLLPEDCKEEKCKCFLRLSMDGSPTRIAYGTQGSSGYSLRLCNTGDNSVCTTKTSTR
# Sequence (P03952 391-638, chain 2 of 2): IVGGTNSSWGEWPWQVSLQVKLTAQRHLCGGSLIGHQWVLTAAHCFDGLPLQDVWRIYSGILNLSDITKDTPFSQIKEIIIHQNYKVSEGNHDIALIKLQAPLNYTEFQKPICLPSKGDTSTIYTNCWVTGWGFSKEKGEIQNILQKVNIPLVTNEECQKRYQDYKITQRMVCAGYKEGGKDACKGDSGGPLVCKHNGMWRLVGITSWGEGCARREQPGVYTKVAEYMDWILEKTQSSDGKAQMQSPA
# PROTOCOL: cell-based or functional assay
ATTRIBUTE MEASURED: % inhibition at 10 nM (%)
One number for each entry, in %.

# % inhibition at 10 nM (binder: M207-A02 (Fab, V domains shown) VH: EVQLLESGGGLVQPGGSLRLSCAASGFTFSHYLMTWVRQAPGKGLEWVSYISPSGGHTIYADSVKGRFTISRDNSKNTLYLQMNSLRAEDTALYYCARVARGIAARSRTINLDYWGQGTLVTVSS VL: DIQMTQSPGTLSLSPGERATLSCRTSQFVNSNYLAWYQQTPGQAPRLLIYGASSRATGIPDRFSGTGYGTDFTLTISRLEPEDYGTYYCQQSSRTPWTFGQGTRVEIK ) is 76.6

Quick request: % inhibition at 10 nM for each listed item, please.
1. M205-E11 (Fab, V domains shown) VH: EVQLLESGGGLVQPGGSLRLSCAASGFTFSNYTMGWVRQAPGKGLEWVSSISPSGGKTDYADSVKGRFTISRDNSKNTLYLQMNSLRAEDTAVYYCARVARGIAARSRTSYFDYWGQGTLVTVSS VL: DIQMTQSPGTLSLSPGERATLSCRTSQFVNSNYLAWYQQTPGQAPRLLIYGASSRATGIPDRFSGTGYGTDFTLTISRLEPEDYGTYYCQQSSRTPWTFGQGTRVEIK
2. M205-C11 (Fab, V domains shown) VH: EVQLLESGGGLVQPGGSLRLSCAASGFTFSQYMMMWVRQAPGKGLEWVSRISPSGGSTLYADSVKGRFTISRDNSKNTLYLQMNSLRAEDTAVYYCARVARGIAARSRTSYFDYWGQGTLVTVSS VL: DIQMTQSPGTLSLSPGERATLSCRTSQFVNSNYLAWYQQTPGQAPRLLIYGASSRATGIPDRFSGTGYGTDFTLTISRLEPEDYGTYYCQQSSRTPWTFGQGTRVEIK

Reply:
78.2
86.5
